Measured values drawn from patent US20250313560A1 for this set.

molecular target: CYP3A4 (Homo sapiens (Human), UniProt P08684); experiment: Mechanism-based inhibition of CYP3A4 assay (MBI 3A4); assay type: in vitro ADME; conditions: human liver microsomes, midazolam substrate; hydroxy-midazolam formation after 30 min preincubation relative to 0 min
Sequence (P08684 whole entry): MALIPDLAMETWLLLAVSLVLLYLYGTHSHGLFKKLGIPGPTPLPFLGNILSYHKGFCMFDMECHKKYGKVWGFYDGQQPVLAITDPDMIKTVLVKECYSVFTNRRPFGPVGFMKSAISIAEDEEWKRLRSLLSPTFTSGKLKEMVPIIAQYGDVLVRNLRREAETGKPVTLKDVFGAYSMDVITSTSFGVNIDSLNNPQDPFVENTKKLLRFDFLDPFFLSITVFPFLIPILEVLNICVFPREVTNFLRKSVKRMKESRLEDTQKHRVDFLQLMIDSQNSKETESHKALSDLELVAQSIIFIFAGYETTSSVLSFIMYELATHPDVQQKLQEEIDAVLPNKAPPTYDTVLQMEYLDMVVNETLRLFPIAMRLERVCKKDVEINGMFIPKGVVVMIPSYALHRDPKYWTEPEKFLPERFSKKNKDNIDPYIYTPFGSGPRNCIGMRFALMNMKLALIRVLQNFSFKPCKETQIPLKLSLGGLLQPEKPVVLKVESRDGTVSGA
Recorded metric: MBI inhibition % ctrl. [%] with MDZ (%)

- C[C@@H](NC(=O)c1cc(N2CCC(N3CC4CC4(CO)C3)CC2)c2ncnn2c1)c1cccc(C(F)F)c1F (single isomer, unassigned) [Example cis-E21b]: 96
- C[C@@H](NC(=O)c1cc(N2CCC(O)(C3CCCN3)CC2)c2ncnn2c1)c1cccc(C(F)F)c1F (single isomer, unassigned) [Example E38b]: 86
- C[C@@H](NC(=O)c1cc(N2CCC(N3CCCC(O)CC3)CC2)c2ncnn2c1)c1cccc(C(F)(F)F)c1F (single isomer, unassigned) [Example E43b]: 94
- C[C@@H](NC(=O)c1cc(N2CCC(NC3COCC3O)CC2)c2ncnn2c1)c1cccc(C(F)F)c1F (single isomer, unassigned) [Example cis-E16b]: 87
- C[C@@H](NC(=O)c1cc(N2CCC(N3CCCC(C)(O)C3)CC2)c2ncnn2c1)c1cccc(C(F)(F)F)c1F (single isomer, unassigned) [Example E47b]: 88
- C[C@@H](NC(=O)c1cc(N2CCC(NC3COCC3O)CC2)c2ncnn2c1)c1cccc(C(F)(F)F)c1F (single isomer, unassigned) [Example trans-E42b]: 94

###

test system: human hepatocytes; experiment: Metabolic stability in human hepatocytes; details: 1 μM test compound, 50% human serum, percentage of liver blood flow
Recorded metric: Hepatic clearance - QH[%] in human hepatocytes (%)

a = C[C@@H](NC(=O)c1cc(N2CCC(NC3COCC3O)CC2)c2ncnn2c1)c1cccc(C(F)(F)F)c1F (single isomer, unassigned) [Example cis-E41b]
b = C[C@@H](NC(=O)c1cc(N2CCC(O)(C3CCCN3)CC2)c2ncnn2c1)c1cccc(C(F)F)c1F (single isomer, unassigned) [Example E38a]
Param pair: a , b . Output: the one whose Hepatic clearance - QH[%] in human hepatocytes is numerically greater. // output: label of the selected item a
(a: 26%, b: 10%)

1 = C[C@@H](NC(=O)c1cc(N2CCC(N3CC4CC4(CO)C3)CC2)c2ncnn2c1)c1cccc(C(F)F)c1F (single isomer, unassigned) [Example cis-E21a]
2 = C[C@@H](NC(=O)c1cc(N2CCC(NCC(C)(C)O)CC2)c2ncnn2c1)c1cccc(C(F)(F)F)c1F
Select the item with the higher value of Hepatic clearance - QH[%] in human hepatocytes from the options 1 and 2 listed. Refer to your chosen item by its label in the answer. 1
(1: 25%, 2: 15%)

I = C[C@@H](NC(=O)c1cc(N2CCC(N3CCCC(C)(O)C3)CC2)c2ncnn2c1)c1cccc(C(F)(F)F)c1F (single isomer, unassigned) [Example E47b]
II = C[C@@H](NC(=O)c1cc(N2CCC(N3C[C@@H](O)C[C@@H]3C)CC2)c2ncnn2c1)c1cccc(C(F)F)c1F
# query: argmin of Hepatic clearance - QH[%] in human hepatocytes over I and II I would appreciate it if you answered with the label of your choice. II
(II: 12%, I: 28%)

###

target: SOS1 and KRAS G12D (Homo sapiens (Human)); experiment: KRAS::SOS1 AlphaScreen binding assay (KRAS G12D); conditions: average of at least two measurements
Sequence (Q07889 564-1049, stated change not applied): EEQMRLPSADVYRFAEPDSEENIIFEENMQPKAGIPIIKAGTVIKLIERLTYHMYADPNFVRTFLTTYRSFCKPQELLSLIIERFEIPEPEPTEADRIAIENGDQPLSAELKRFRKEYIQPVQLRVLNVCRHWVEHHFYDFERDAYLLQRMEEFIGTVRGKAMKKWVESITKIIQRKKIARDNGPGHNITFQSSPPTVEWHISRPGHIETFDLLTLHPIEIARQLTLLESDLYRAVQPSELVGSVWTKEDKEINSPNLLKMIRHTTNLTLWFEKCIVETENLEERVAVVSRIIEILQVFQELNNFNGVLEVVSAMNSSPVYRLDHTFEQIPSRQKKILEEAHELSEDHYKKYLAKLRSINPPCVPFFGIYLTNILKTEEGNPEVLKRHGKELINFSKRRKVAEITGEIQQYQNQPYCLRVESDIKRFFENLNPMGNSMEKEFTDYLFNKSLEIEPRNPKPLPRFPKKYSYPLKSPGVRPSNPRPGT
Recorded metric: IC50 (nM)

* C[C@@H](NC(=O)c1cc(N2CCC(N3CCO[C@H](CO)C3)CC2)c2ncnn2c1)c1cccc(C(F)F)c1F | 51

1 = C[C@@H](NC(=O)c1cc(N2CCC3(CCCN3C)CC2)c2ncnn2c1)c1cccc(C(F)(F)F)c1F
2 = C[C@@H](NC(=O)c1cc([C@]2(O)CC[C@@H](N3CC[C@H](F)C3)CC2)c2ncnn2c1)c1cccc(C(F)F)c1F
3 = C[C@H](O)CNC1CCN(c2cc(C(=O)N[C@H](C)c3cccc(C(F)(F)F)c3F)cn3ncnc23)CC1
4 = C[C@@H](NC(=O)c1cc(N2CCC3(CCCN3)CC2)c2ncnn2c1)c1cccc(C(F)(F)F)c1F
5 = Cc1nnc2c(N3CCC4(CCCN4C)CC3)cc(C(=O)N[C@H](C)c3cccc(C(F)(F)F)c3F)cn12
Order field: IC50 | Direction: descending (largest first) A complete answer lists every label in the requested sequence. 2, 3, 4, 1, 5

a = C[C@@H](NC(=O)c1cc(N2CCC(NC3CCCC3(C)O)CC2)c2ncnn2c1)c1cccc(C(F)(F)F)c1F (single isomer, unassigned) [Example trans-E53a]
b = C[C@@H](NC(=O)c1cc(N2CCC(N(C)CC(C)(C)O)CC2)c2ncnn2c1)c1cccc(C(F)F)c1F
Select the item whose IC50 value is smaller, choosing between a and b . # respond with the chosen item's label a
(a: 24 nM, b: 43 nM)

###

target: SOS1 and KRAS G12D (Homo sapiens (Human)); assay: KRAS::SOS1 AlphaScreen binding assay (KRAS G12D); settings: average of at least two measurements
Recorded metric: IC50 (nM)

• C[C@@H](NC(=O)c1cc(N2CCC(NC3COCC3O)CC2)c2ncnn2c1)c1cccc(C(F)(F)F)c1F (single isomer, unassigned) [Example trans-E42b] = 36

P = C[C@@H](NC(=O)c1cc([C@H]2CC[C@H](N3CCC[C@H](O)C3)CC2)c2ncnn2c1)c1cccc(C(F)(F)F)c1F
Q = C[C@@H](NC(=O)c1cc(N2CCC3(CCNC3)CC2)c2ncnn2c1)c1cccc(C(F)(F)F)c1F
Select the item whose IC50 value is smaller, choosing between P and Q . Response format: the label of the selected entry. Q

I = C[C@@H](NC(=O)c1cc(N2CCC(NC3COCC3O)CC2)c2ncnn2c1)c1cccc(C(F)F)c1F (single isomer, unassigned) [Example cis-E16a]
II = C[C@@H](NC(=O)c1cc(N2CCC(N3CC4CC4C3CO)CC2)c2ncnn2c1)c1cccc(C(F)F)c1F (single isomer, unassigned) [Example cis-E11b]
Hi there, can you help? I need to know whether I or II has lower measured IC50. Refer to your chosen item by its label in the answer. II

###

target: CYP3A4 (Homo sapiens (Human)); assay: Mechanism-based inhibition of CYP3A4 assay (MBI 3A4); assay type: in vitro ADME; conditions: human, human liver microsomes, probe midazolam 15 μM (hydroxy-midazolam formation), midazolam substrate, hydroxy-midazolam formation after 30 min preincubation relative to 0 min, read-out: MBI inhibition % ctrl. [%] with MDZ
Recorded metric: inhibition at 30 min (%)

- C[C@@H](NC(=O)c1cc([C@]2(O)CC[C@@H](N3CC[C@H](F)C3)CC2)c2ncnn2c1)c1cccc(C(F)F)c1F [Example E66]: 81
- C[C@@H](NC(=O)c1cc(N2CCC(N3CC[C@H](CO)C3)CC2)c2ncnn2c1)c1cccc(C(F)(F)F)c1F [Example E26]: 92
- C[C@@H](NC(=O)c1cc(N2CCC(N(C)CC(C)(C)O)CC2)c2ncnn2c1)c1cccc(C(F)F)c1F [Example E7]: 106
- Cc1nnc2c(N3CCC4(CCCN4C)CC3)cc(C(=O)N[C@H](C)c3cccc(C(F)(F)F)c3F)cn12 [Example E79]: 90
- C[C@@H](NC(=O)c1cc(N2CCC(N3CCC[C@H]3CO)CC2)c2ncnn2c1)c1cccc(C(C)(F)F)c1F [Example E72]: 98
- C[C@@H](NC(=O)c1cc([C@H]2CC[C@H](N3CC[C@H](O)C3)CC2)c2ncnn2c1)c1cccc(C(F)(F)F)c1F [Example E69]: 85
- C[C@@H](NC(=O)c1cc(N2CCC(N3CCCC(O)CC3)CC2)c2ncnn2c1)c1cccc(C(F)F)c1F (single isomer, unassigned) [Example E17b]: 98
- C[C@@H](NC(=O)c1cc(N2CCC3(CCCCN3C)CC2)c2ncnn2c1)c1cccc(C(F)(F)F)c1F [Example E46]: 98
- C[C@@H](NC(=O)c1cc(N2CCC(N(C)CCO)CC2)c2ncnn2c1)c1cccc(C(F)(F)F)c1F [Example E55]: 83
- C[C@@H](NC(=O)c1cc(N2CCC(N3CCCC(O)CC3)CC2)c2ncnn2c1)c1cccc(C(F)(F)F)c1F (single isomer, unassigned) [Example E43a]: 91
- C[C@@H](NC(=O)c1cc(N2CCC(N3CC[C@](C)(O)C3)CC2)c2ncnn2c1)c1cccc(C(F)F)c1F [Example E4]: 99
- Cc1nc2c(N3CCC4(CCCN4)CC3)cc(C(=O)N[C@H](C)c3cccc(C(F)(F)F)c3F)cn2n1 [Example E78]: 103
- C[C@@H](NC(=O)c1cc(N2CCC(N3C[C@H](O)C4(CC4)C3)CC2)c2ncnn2c1)c1cccc(C(F)(F)F)c1F [Example E28]: 90
- C[C@@H](NC(=O)c1cc(N2CCC(N(C)C)CC2)c2ncnn2c1)c1cccc(C(F)(F)F)c1F [Example E35]: 94
